- System: CAL-85-1
- TEST: drug sensitivity score (DSS), CellTox Green (DSS (AUC-based score)); higher = stronger drug effect (viability inhibition or cytotoxicity); extreme values may be limits of the assay
- CONDITION INFO: incubation time: 72 h
ASSAY ENDPOINT: drug sensitivity score
// no unit, no text: just the number

Worked cases, drug sensitivity score given:
O=C(CCCCCCC(=O)Nc1ccc([C@H]2O[C@@H](CSc3nc(-c4ccccc4)c(-c4ccccc4)o3)C[C@@H](c3ccc(CO)cc3)O2)cc1)NO [Tubacin]
5.67
CN(N=O)C(=O)N[C@@H](C=O)[C@@H](O)[C@H](O)[C@H](O)CO [Streptozocin]
0
CNCc1ccc(-c2[nH]c3cc(F)cc4c3c2CCNC4=O)cc1 [Rucaparib]
0
CC(C)Cn1cnc2c(N)nc3ccccc3c21 [Imiquimod]
1.01

Data request, read-out drug sensitivity score, for CN[C@@H]1C[C@H]2O[C@@](C)([C@@H]1OC)n1c3ccccc3c3c4c(c5c6ccccc6n2c5c31)C(=O)N[C@H]4O [UCN-01]
20.2

# iterate: C=C(c1ccc(C(=O)O)cc1)c1cc2c(cc1C)C(C)(C)CCC2(C)C [Bexarotene]
0

# iterate: N[C@@H](CSC(c1ccccc1)(c1ccccc1)c1ccccc1)C(=O)O [S-trityl-L-cysteine]
0

# iterate: Oc1nc(-c2ccc(C(F)(F)F)cc2)nc2c1CSCC2 [XAV-939]
0
